Experiment: Tmax in Sprague-Dawley rat plasma at <0.1 mg/kg, po administered as OPMS liquid formulation measured for 24 hrs by UPLC-MS/MS analysis
Assay type: ADME, organism-based
Measured Attribute: Tmax (h)
Entry rule: numbers only, all in h.

Q. I would be grateful if you could share the reported Tmax for `CC[C@@H]1CN2CC[C@@]3(O)C(=Nc4cccc(OC)c43)[C@@H]2C[C@@H]1/C(=C\OC)C(=O)OC` .
A. 3.1

----------
Experiment: Cmax in Sprague-Dawley rat plasma at 1.23 mg/kg, po administered as OPMS liquid formulation measured for 24 hrs by UPLC-MS/MS analysis
Format: ADME, organism-based
Set-up: route oral, time 24 hrs, dose 1.23 mg/kg
Measured Attribute: Cmax (ng/mL)
Give your result in ng/mL as a bare value.

Q. Using the record for `CC[C@H]1CN2CCc3c([nH]c4cccc(OC)c34)[C@@H]2C[C@@H]1/C(=C\OC)C(=O)OC` , report its Cmax.
A. 2.9

----------
Experiment: Cmax in Sprague-Dawley rat plasma at <0.1 mg/kg, po administered as OPMS liquid formulation measured for 24 hrs by UPLC-MS/MS analysis
Assay type: ADME, organism-based
Parameters: route oral, time 24 hrs, dose <0.1
Measured Attribute: Cmax (ng/mL)
Express the result in ng/mL but write the number alone.

Q. Report Cmax for `CC[C@@H]1CN2CC[C@@]3(O)C(=Nc4cccc(OC)c43)[C@@H]2C[C@@H]1/C(=C\OC)C(=O)OC` please.
A. 4

----------
Experiment: Tmax in Sprague-Dawley rat plasma at 1.23 mg/kg, po administered as OPMS liquid formulation measured for 24 hrs by UPLC-MS/MS analysis
Format: ADME, organism-based
Measured Attribute: Tmax (min)
Form entry: value (min) — number only.

Q. Any idea what Tmax was measured for `CC[C@H]1CN2CCc3c([nH]c4cccc(OC)c34)[C@@H]2C[C@@H]1/C(=C\OC)C(=O)OC` ?
A. 5

----------
Experiment: Plasma concentration in Sprague-Dawley rat at 1.1 mg/kg, po administered as LKT formulation measured within 1 hrs by UPLC-MS/MS analysis
Format: ADME, organism-based
Measured Attribute: concentration at 1 h

Q. What value of concentration at 1 h has been reported for the following molecule? `C=C[C@H]1CN2CCc3c([nH]c4cccc(OC)c34)[C@@H]2C[C@@H]1/C(=C\OC)C(=O)OC`
A. < 1 ng/mL

----------
Experiment: AUC(0 to 24 hrs) in Sprague-Dawley rat plasma at <0.1 mg/kg, po administered as OPMS liquid formulation measured for 24 hrs by UPLC-MS/MS analysis
Assay type: ADME, organism-based
Set-up: route oral, time 24 hrs, dose <0.1
Measured Attribute: AUC(0-t) at 24 h
I'd appreciate it if you included the unit after the number.

Q. Name the recorded AUC(0-t) at 24 h for `CC[C@@H]1CN2CC[C@@]3(O)C(=Nc4cccc(OC)c43)[C@@H]2C[C@@H]1/C(=C\OC)C(=O)OC` .
A. 41 ng·h/mL

----------
Experiment: AUC(0 to 24 hrs) in Sprague-Dawley rat plasma at […], po administered as OPMS liquid formulation measured for 24 hrs by UPLC-MS/MS analysis
Type: ADME, organism-based
Set-up: route oral, dose 0.18 mg/kg, time 24 hrs
Measured Attribute: AUC(0-t) at 24 h (ng·h/mL)
Please state the figure in ng·h/mL; there is no need to write the unit.

Q. Bench note: what AUC(0-t) at 24 h did `CC[C@@H]1CN2CCc3c([nH]c4ccccc34)[C@@H]2C[C@@H]1/C(=C\OC)C(=O)OC` show?
A. 30.4

Every entry's value here was drawn from ChEMBL document CHEMBL4834399.
